- Tested on: hedgehog, isoform A (Drosophila melanogaster)
- assay summary: Hh protein inhibition, biochemical readout – plate reader, single concentration, primary screen (AID 588832);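 also: 0% = neutral control wells and 100% = positive control wells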
- test context: Biochemical plate reader assay, at 30.3 µM, active compounds read high
Out of some 8,000 compounds screened, fewer than 10 were called active. A selection follows.
endpoint name: inhibition (%)
Entry rule: numbers only, all in %.

Below, each entry is followed by its recorded inhibition result.
[
  {
    "compound": "Cc1cc(NC(=O)c2noc3c2CCc2ccccc2-3)n(-c2ccccc2)n1",
    "inhibition [%]": 3.64
  },
  {
    "compound": "CCOC(=O)Cn1c(=O)n(Cc2ccco2)c(=O)c2ccc(C(=O)NC3CCCC3)cc21",
    "inhibition [%]": -13
  },
  {
    "compound": "CCOc1ccc(CC(=O)NCc2ccc3c(c2)cc(C)n3C)cc1",
    "inhibition [%]": 3.85
  }
]

Tell me the measured inhibition of COc1cc(-c2cc(=O)c3c(O)c(OC)c(OC)c(OC)c3o2)cc(OC)c1OC , please.
3.45

Recorded inhibition for C/C=C(/C)C(=O)OC1c2c(ccc3ccc(=O)oc23)OC(C)(C)C1OC(=O)/C(C)=C\C (centres undefined) , please?
5.23
